The reported measurements were obtained from patent US20100168099A1.

Reported Affinity for the α1-subunit of the GABAA receptor, % inhibition values for the following molecules.
Tested on: α1-GABAA receptor
testMethodNotes: Ligand-binding assay, radiolabeled flumazenil competition, cerebellum membranes
Parameters: species or system rat
testConditions: 10^−7M; rat cerebellum membranes, radiolabeled flumazenil 1 nM
Procedure: a) Ligand-binding Assays. Determination of the Affinity of Test Compounds for α1- and α2-GABAA, Receptor Male Sprague-Dawley rats weighing 200-250 g at the time of experiment were used. […] Affinity was determined by competitive tests using radiolabeled flumazenil as ligand. […] The next day the plates were counted using a Perkin-Elmer Microbeta scintillation counter. For analysis of the results the percentage of specific binding for every concentration of test compound was calculated as follows: […]
Give the value, in units of %, as a plain number.

Answered cases to consult:
Ask | Please report the recorded Affinity for the α1-subunit of the GABAA receptor, % inhibition for Cc1ccc2c(=O)c(-c3ccccc3)cn(CC(=O)c3ccccn3)c2c1 .
Reply | 22.5

Ask | Please report the recorded Affinity for the α1-subunit of the GABAA receptor, % inhibition for CCCN(CCC)C(=O)Cn1cc(-c2ccc(OC)cc2)c(=O)c2ccc(C)cc21 .
Reply | 20.3

Ask | Please report the recorded Affinity for the α1-subunit of the GABAA receptor, % inhibition for Cc1cccc2c1c(=O)cc(-c1ccccc1)n2CC(=O)N1CCOCC1 .
Reply | 57.9

Ask | Please report the recorded Affinity for the α1-subunit of the GABAA receptor, % inhibition for Cc1ccc2c(=O)c(-c3ccccc3)cn(CC(=O)N3CCCCC3)c2c1 .
Reply | 0.0

Ask | Please report the recorded Affinity for the α1-subunit of the GABAA receptor, % inhibition for CCCN(CCC)C(=O)Cn1cc(-c2ccccc2)c(=O)c2ccc(C)cc21 .
Reply | 36.7

Next:
Ask | Please report the recorded Affinity for the α1-subunit of the GABAA receptor, % inhibition for Cc1ccc2c(=O)c(-c3ccccc3)cn(CC(=O)N3C(C)C=CC3C)c2c1 (centres unmarked) .
Reply | 25.6

Ask | Please report the recorded Affinity for the α1-subunit of the GABAA receptor, % inhibition for Cc1ccc2c(=O)c(-c3ccccc3)cn(CC(=O)N3CCCC3)c2c1 .
Reply | 7.5

Ask | Please report the recorded Affinity for the α1-subunit of the GABAA receptor, % inhibition for CCCN(CC1CC1)C(=O)Cn1cc(-c2ccccc2)c(=O)c2ccc(C)cc21 .
Reply | 56.3

Ask | Please report the recorded Affinity for the α1-subunit of the GABAA receptor, % inhibition for C=CCN(CC=C)C(=O)Cn1cc(-c2ccccc2)c(=O)c2ccc(C)cc21 .
Reply | 49.9

Ask | Please report the recorded Affinity for the α1-subunit of the GABAA receptor, % inhibition for Cc1ccc(-c2nc3ccc(C)cn3c2CC(=O)N(C)C)cc1 [zolpidem, reference compound] .
Reply | 51.9

Ask | Please report the recorded Affinity for the α1-subunit of the GABAA receptor, % inhibition for COc1ccc(NC(=O)Cn2cc(-c3ccc(OC)cc3)c(=O)c3ccc(C)cc32)cc1 .
Reply | 28.5

Ask | Please report the recorded Affinity for the α1-subunit of the GABAA receptor, % inhibition for CCCN(CCC)C(=O)Cn1cc(-c2ccccc2)c(=O)c2ccc(Br)cc21 .
Reply | 61.9

Ask | Please report the recorded Affinity for the α1-subunit of the GABAA receptor, % inhibition for CCCN(CCC)C(=O)Cn1cc(-c2ccccc2)c(=O)c2ccccc21 .
Reply | 2.3

Ask | Please report the recorded Affinity for the α1-subunit of the GABAA receptor, % inhibition for CCN(CC)C(=O)Cn1cc(-c2ccccc2)c(=O)c2ccc(C)cc21 .
Reply | 0.7

Ask | Please report the recorded Affinity for the α1-subunit of the GABAA receptor, % inhibition for Cc1ccc2c(=O)c(-c3ccccc3)cn(CC(=O)c3cccs3)c2c1 .
Reply | 14.0

Ask | Please report the recorded Affinity for the α1-subunit of the GABAA receptor, % inhibition for C=CCN(CC=C)C(=O)Cn1cc(-c2ccccc2)c(=O)c2ccc(Br)cc21 .
Reply | 85.2

Ask | Please report the recorded Affinity for the α1-subunit of the GABAA receptor, % inhibition for Cc1cccc2c1c(=O)cc(-c1ccccc1)n2CC(=O)N1CCCC1 .
Reply | 52.6

Ask | Please report the recorded Affinity for the α1-subunit of the GABAA receptor, % inhibition for Cc1ccc2c(=O)c(-c3ccccc3)cn(CC(=O)c3oc(C)nc3C)c2c1 .
Reply | 33.9

Ask | Please report the recorded Affinity for the α1-subunit of the GABAA receptor, % inhibition for Cc1ccc2c(=O)c(-c3ccccc3)cn(CC(=O)N3CC(C)OC(C)C3)c2c1 (centres unmarked) .
Reply | 18.4

Ask | Please report the recorded Affinity for the α1-subunit of the GABAA receptor, % inhibition for C=CCN(CC=C)C(=O)Cn1cc(-c2ccc(OC)cc2)c(=O)c2ccc(C)cc21 .
Reply | 4.9
